biological target: AMP-activated protein kinase, AMPK (Homo sapiens) (UniProt P54646+O43741+P54619+Q9UGJ0+Q9Y478+Q13131+Q9UGI9); test: AMP-dependent Kinase enzyme assay. An in vitro enzyme assay that detects ADP turnover that is directly proportional to AMPK activity. This uses naive AMPK that is activated during the assay with MK-8722; assay type: functional; parameters: scale not given: direction of the effect not stated beside the values; settings: 30 µM

| COMPOUND | Percent Effect, % |
| --- | --- |
| N#Cc1ccccc1OCCN1CCCC1Cn1cccn1 (centres undefined) | -5.48 |
| CC(C)Cc1noc(CN(C)C(=O)C2COc3ccccc3C2)n1 (centres undefined) | -1.17 |
| O=C(c1ccc[nH]1)N1CCC(c2nccn2Cc2ccncc2)CC1 | -1.71 |
| Cn1cnnc1S(=O)(=O)C1CCN(S(=O)(=O)C2CC2)CC1 | 14.5 |
| CC(=O)NC1CCCN(C(=O)Nc2cnc3c(cnn3C(C)C)c2)C1 (centres undefined) | 0.9 |
| O=C(Nc1ccc(N2CCCC2)nc1)N1CCc2sccc2C1 | 0.616 |
| CCN1Cc2c(C(=O)NCC3CC3)ncn2-c2ccccc2S1(=O)=O | -3.01 |
| CCOc1ccccc1OC1CCN(C(=O)c2nc(=O)[nH][nH]2)CC1 | -5.81 |
| Cc1ccc2c(ccn2CCC(=O)N2CCC(C(N)=O)CC2)c1 | 6.01 |
| Cc1nn(C)c2c(NCc3cccnc3)nc(C3CC3)nc12 | 11.8 |
| Cc1ccc(-c2noc(CN3CCOC(Cn4cncn4)C3)n2)cc1 (centres undefined) | 0.576 |
| Cn1cc(CN2CCc3c(nc(-c4ccccn4)[nH]c3=O)C2)cn1 | 8.84 |
| CN(C(=O)C1CSCN1S(=O)(=O)c1ccc(F)cc1)C1CC1 (centres undefined) | -0.918 |
| CC(=O)Nc1nc(C(=O)Nc2ccc(F)cc2)cs1 | 28 |
| CCOC(=O)CN1CCC(C(=O)c2cc(F)ccc2F)CC1 | -10.9 |
| O=C(Nc1ccccc1)c1nn(C2CCS(=O)(=O)C2)c2c1CCCC2 (centres undefined) | 5.68 |
| Cc1cccn2c(=O)cc(OC(=O)c3ccccc3)nc12 | 45.4 |
| CC(C)c1nc2c(n1C)CCN(CC(=O)Nc1nccs1)C2 | 1.78 |
| Cc1n[nH]c(C2CN(CC(=O)NCc3ccco3)CCO2)n1 (centres undefined) | 3.1 |
| Cc1ccc2cnn(CCC(=O)NCc3c(C)nn(C)c3C)c2c1 | 0.586 |
| Cc1cccc(NC2CCN(C(=O)Nc3cc(C)on3)CC2)n1 | -3.67 |
| Cc1nsc(N2CCCN(c3nc(C4CC4)ns3)CC2)n1 | 9.09 |
| CCc1nc(CCNC(=O)C2CCOC2)sc1C (centres undefined) | -4.04 |
| Cc1ccccc1CNC(=O)CN1CCN(Cc2nccn2C)CC1 | -6.67 |

###

biological target: Proteasome subunit beta (Trypanosoma cruzi); assay: Trypanosoma cruzi proteasome chymotrypsin-like activity (TcProtChymo) assay.; assay type: functional; parameters: scale not given: in the data most compounds retested in dose-response had high values; details: 9.37 µM

| MOLECULE | UNITS_OF_MEASURE | Percent Effect |
| --- | --- | --- |
| N#Cc1c(F)cccc1N1CCN(S(=O)(=O)c2cccs2)CC1 | % | 8.16 |
| CC(=O)N1CCO[C@@H]2CN(C(=O)c3cc(C)oc3C)CC[C@@H]2C1 | % | 7.75 |
| COCC(=O)N1CCC(c2nccnc2Oc2cccnc2C)CC1 | % | 15.6 |
| Cc1cc(CN(C)C(=O)c2ccc(F)cc2Br)no1 | % | 15.3 |
| CN(C)CC(=O)N1CCC2(CCN(Cc3ccccn3)C2=O)C1 (configuration not stated) | % | 12.6 |
| COc1cccc2c1ccn2CCC(=O)NCCCC(=O)O | % | 13.5 |
| COCC(=O)N1CCC(c2nccn2CC2CC2)CC1 | % | 19.8 |
| CC(=O)N1CCOCC2(CCN(Cc3ccc(C)s3)CC2)C1 | % | 2.91 |
| C[C@]1(O)CCN(Cc2cncs2)C[C@@H]1Oc1cccc(F)c1 | % | -1.64 |
| Cc1cc(C)c2c(OCC(=O)NC(C)C)nn(C)c2n1 | % | 6.9 |
| O=S(=O)(CCNCc1ccc2c(c1)CCO2)N1CCOCC1 | % | 11.7 |
| O=C(C1=CCCC1)N1CCC[C@]2(C[C@@H](OCc3ccncc3)CO2)C1 | % | 7.69 |

###

test system: Trypanosoma cruzi; test: Trypanosoma cruzi phosphomannomutase and mannose-1-phosphate guanylyltransferase assay; type: functional; design: scale not given: direction of the effect not stated beside the values; details: 10 µM

| COMPOUND | Percent Effect (%) |
| --- | --- |
| CC(C)(N)CN1CCC(c2nnc(CN3CCCC3)n2C2CC2)CC1 | -0.0974 |
| Cc1nc(-c2cccc(C(=O)O)c2)cc(C2CCN(C(C)C)C2)n1 (stereo unspecified) | -1.18 |
| O=C(c1cscn1)N1C[C@H]2CCCC(OCc3cccnc3)[C@H]2C1 (stereo partly specified) | -0.193 |
| Cc1cc(N2CCC(Cc3ccccc3)CC2)nc(-c2ccncc2)n1 | 14.4 |
| Cn1cccc1C(=O)NCc1cnc2n1CCN(C(=O)N1CCCC1)C2 | 6.18 |
| Cc1ccc(Cl)cc1N1CCC(CNC(=O)CCn2ccnc2)C1 (stereo unspecified) | 10.8 |
| Cc1ccc(-c2nc(CCNC(=O)CCN3CCOC3=O)co2)cc1 | -0.602 |
| Cc1cc(CN2Cc3ccccc3CC2c2nnc(C)o2)on1 (stereo unspecified) | 2.25 |
| COc1cccc(CN(C)Cc2ccc(C#N)cc2)c1OC | 0.586 |
| Cc1ccc(-c2cccc(-c3ccn(CCN4CCCC4)n3)c2)nn1 | -3.09 |
| CC(C)(C)c1n[nH]c(C2CN(C(=O)CCC3CC3)CCO2)n1 (stereo unspecified) | 9.86 |

###

target: Sialic acid-binding Ig-like lectin 9 (Homo sapiens); experiment: Hs-Siglec9 ALPHAscreen SOP 20170721; parameters: scale not given: direction of the effect not stated beside the values; details: 10 µM
Listing of entries alongside the reported Percent Effect.

| MOLECULE | UNITS_OF_MEASURE | Percent Effect |
| --- | --- | --- |
| COc1cc(C(=O)NS(=O)(=O)c2cccc(C#N)c2)cc(Cl)c1OC | % | 4.53 |
| CCNC(=O)c1cnc(Cc2ccc(F)cc2)s1 | % | 1.03 |
| COCCN(C)CCN1CC2(CCN(C3CCCOC3)CC2)OC1=O (stereo unspecified) | % | 3.41 |
| CCc1cnc2c(c1NCc1ccncc1)c(=O)n(C)c(=O)n2C | % | -0.488 |
| CC(NC(=O)N1CCN(c2ccccc2)CC1)c1nncn1C (stereo unspecified) | % | -3.63 |
| NC(=O)NCC(=O)N1C[C@H]2CC[C@@H]1CN(C1Cc3ccccc3C1)C2 | % | 17.9 |

###

Listing of entries alongside the reported Percent Effect.
Target: Tyrosyl-tRNA synthetase, putative (Trypanosoma cruzi (strain CL Brener))
Sequence (whole entry): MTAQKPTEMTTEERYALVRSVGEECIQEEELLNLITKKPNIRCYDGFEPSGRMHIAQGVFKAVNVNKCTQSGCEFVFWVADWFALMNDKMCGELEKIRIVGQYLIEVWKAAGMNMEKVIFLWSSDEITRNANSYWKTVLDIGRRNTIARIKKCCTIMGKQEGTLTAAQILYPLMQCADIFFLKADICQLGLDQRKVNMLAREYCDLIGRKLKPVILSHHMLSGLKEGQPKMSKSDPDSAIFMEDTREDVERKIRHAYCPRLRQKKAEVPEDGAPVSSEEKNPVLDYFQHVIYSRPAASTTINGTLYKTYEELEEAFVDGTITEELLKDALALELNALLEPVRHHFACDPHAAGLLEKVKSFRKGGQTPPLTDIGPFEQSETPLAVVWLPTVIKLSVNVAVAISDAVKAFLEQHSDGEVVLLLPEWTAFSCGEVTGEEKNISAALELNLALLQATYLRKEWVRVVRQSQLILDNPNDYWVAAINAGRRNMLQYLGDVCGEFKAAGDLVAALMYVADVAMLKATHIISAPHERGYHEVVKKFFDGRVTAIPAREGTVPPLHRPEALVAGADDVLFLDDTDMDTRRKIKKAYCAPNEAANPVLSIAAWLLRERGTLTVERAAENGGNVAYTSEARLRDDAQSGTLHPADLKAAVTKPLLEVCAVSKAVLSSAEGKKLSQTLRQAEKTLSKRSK
Assay: Trypanosoma cruzi tyrosyl tRNA synthetase (TcYRS) SOP
Type: functional
Parameters: scale not given: direction of the effect not stated beside the values
Details: 30 µM
RESULT_TYPE: Percent Effect (%)

| MOL_SMILES | RESULT_TYPE | UNITS_OF_MEASURE | MEASURED_NUMBER |
| --- | --- | --- | --- |
| CCc1nnc(CN2CCN(C(=O)c3ccccn3)CC2)o1 | Percent Effect | % | 9.41 |
| Cc1ccc(F)c(-n2nnc(C(=O)O)c2-c2ccncc2)c1 | Percent Effect | % | 10.4 |
| CN(CCC(F)(F)F)C(=O)[C@H]1CSCN1C(=O)OC(C)(C)C | Percent Effect | % | 2.5 |
| CNC(=O)CCCNCc1c(C)nn(C)c1N(C)C | Percent Effect | % | 1.21 |
| CCOCC(=O)N1CCC(Oc2ccc(Cl)cn2)CC1 | Percent Effect | % | 8.97 |
| Cc1nc(-c2nnc[nH]2)sc1C(=O)N(Cc1cccnc1)C1CC1 | Percent Effect | % | 18.1 |
